B1: 2K2A (parent)
chain: ELREAFRLYDKEGNGYISTDVMREILAELDETLSSEDLDAMIDEIDADGSGTVDFEEFMGVMT

- Variants of: B1
- Test Summary: folding stability dG (cDNA display proteolysis); higher = more stable
- Assay Setup: PBS, room temperature
Recorded Metric: folding stability dG (kcal/mol)
Numeric only. Scale: kcal/mol

Past entries and their recorded results:
E31Y	2.01
A47C	1.97
L8K	2.44
E28Q	2.24
T32P	0.441

Consider the variant D30G and give its recorded folding stability dG.
1.13

Give folding stability dG for R7K
2.12
